Reference source: ChEMBL document CHEMBL2385026

Assay Info: Half life in Sprague-Dawley rat at 0.4 mg/kg, iv by LC/MS/MS analysis
Assay type: ADME, organism-based
Design: dose 0.4 mg/kg, route intravenous
Test Settings: in vivo
Parameter Measured: half-life (min)

>>> reported_result("C[C@@H](O)c1nc2cnc3[nH]ccc3c2n1[C@H]1CCCOC1")
90

A: C[C@@H](O)c1nc2cnc3[nH]ccc3c2n1[C@H]1CC[C@H](CC#N)CC1
B: C[C@@H](O)c1nc2cnc3[nH]ccc3c2n1[C@H]1CC[C@@H](NCC(F)(F)F)C1
## Task # query: argmin of half-life over A and B API: response body contains the label of the selected item.
## Result A
(A: 30 min, B: 66 min)

====

Assay Info: Thermodynamic solubility in aqueous buffer at pH 7.4
Format: physicochemical
Test Settings: read-out: Therm_solubility
Parameter Measured: solubility thermodynamic (µM)

In the examples that follow, each entry is paired with its recorded solubility thermodynamic.
>>> reported_result("C[C@@H](O)c1nc2cnc3[nH]ccc3c2n1[C@H]1CC[C@@H](NCC(F)(F)F)C1")
70
>>> reported_result("C[C@@H](O)c1nc2cnc3[nH]ccc3c2n1[C@H]1CC[C@H](NCC(F)(F)F)CC1")
130
>>> reported_result("C[C@@H](O)c1nc2cnc3[nH]ccc3c2n1[C@H]1CC[C@H](CCC#N)CC1")
16

A: C[C@@H](O)c1nc2cnc3[nH]ccc3c2n1[C@H]1CC[C@H](CC#N)CC1
B: C[C@@H](O)c1nc2cnc3[nH]ccc3c2n1[C@H]1CC[C@H](C#N)CC1
## Task # query: argmin of solubility thermodynamic over A and B API: response body contains the label of the selected item.
## Result A
(A: 130 µM, B: 1900 µM)

====

Documented IC50 across a set of compounds
Tested System: Cytochrome P450 2C9 (Homo sapiens, UniProt P11712)
Sequence (P11712 whole entry): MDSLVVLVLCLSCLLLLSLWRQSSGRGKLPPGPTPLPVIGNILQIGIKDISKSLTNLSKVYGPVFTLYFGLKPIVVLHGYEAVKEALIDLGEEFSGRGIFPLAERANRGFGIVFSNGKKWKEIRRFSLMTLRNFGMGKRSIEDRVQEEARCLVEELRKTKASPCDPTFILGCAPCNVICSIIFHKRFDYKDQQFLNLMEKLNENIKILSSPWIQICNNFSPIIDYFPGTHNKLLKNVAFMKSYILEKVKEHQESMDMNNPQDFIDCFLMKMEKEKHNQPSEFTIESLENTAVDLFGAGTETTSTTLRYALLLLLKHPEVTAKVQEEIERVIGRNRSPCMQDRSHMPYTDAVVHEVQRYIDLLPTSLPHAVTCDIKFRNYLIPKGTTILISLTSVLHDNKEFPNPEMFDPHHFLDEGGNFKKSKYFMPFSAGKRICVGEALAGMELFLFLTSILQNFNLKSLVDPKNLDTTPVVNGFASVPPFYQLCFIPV

In the examples that follow, each entry is paired with its recorded IC50.
>>> reported_result("C[C@@H](O)c1nc2cnc3[nH]ccc3c2n1[C@H]1CC[C@@H](NCC(F)(F)F)C1")
"> 10 µM"
>>> reported_result("C[C@@H](O)c1nc2cnc3[nH]ccc3c2n1[C@H]1CC[C@H](C#N)CC1")
"> 10 µM"

## Task // fetch Cytochrome P450 2C9 (Homo sapiens, UniProt P11712) IC50 for C[C@@H](O)c1nc2cnc3[nH]ccc3c2n1[C@H]1CCCOC1
## Result > 10 µM

====

Tested System: Cytochrome P450 3A4 (Homo sapiens)
Sequence (P08684 whole entry): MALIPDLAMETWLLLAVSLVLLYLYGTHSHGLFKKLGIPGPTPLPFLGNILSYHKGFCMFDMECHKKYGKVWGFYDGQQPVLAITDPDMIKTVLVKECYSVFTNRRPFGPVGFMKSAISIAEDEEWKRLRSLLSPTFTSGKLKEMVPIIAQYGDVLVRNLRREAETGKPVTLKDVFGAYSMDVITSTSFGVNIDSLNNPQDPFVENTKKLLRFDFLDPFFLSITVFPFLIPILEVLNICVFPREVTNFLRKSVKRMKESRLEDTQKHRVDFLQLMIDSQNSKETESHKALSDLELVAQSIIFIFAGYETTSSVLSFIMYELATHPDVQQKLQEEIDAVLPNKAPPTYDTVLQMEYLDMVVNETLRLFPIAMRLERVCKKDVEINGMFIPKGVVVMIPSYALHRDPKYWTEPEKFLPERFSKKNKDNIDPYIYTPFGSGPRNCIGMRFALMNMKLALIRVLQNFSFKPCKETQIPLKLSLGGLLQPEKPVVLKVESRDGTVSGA
Assay Info: Reversible inhibition of CYP3A4 in human liver microsomes using midazolam as substrate by LC/MS/MS analysis
Type: ADME, Microsome
Parameter Measured: IC50 (µM)

>>> reported_result("C[C@@H](O)c1nc2cnc3[nH]ccc3c2n1[C@H]1CC[C@H](C#N)CC1")
7.9
>>> reported_result("C[C@@H](O)c1nc2cnc3[nH]ccc3c2n1[C@H]1CC[C@H](CCC#N)CC1")
6.7
>>> reported_result("C[C@@H](O)c1nc2cnc3[nH]ccc3c2n1[C@H]1CC[C@H](CC#N)CC1")
8.8

====

Assay Info: Oral bioavailability in Sprague-Dawley rat at 2 mg/kg by LC/MS/MS analysis
Assay type: ADME, organism-based
Test Settings: Sprague-Dawley, in vivo
Parameter Measured: bioavailability (%)

>>> reported_result("C[C@@H](O)c1nc2cnc3[nH]ccc3c2n1[C@H]1CC[C@H](C#N)CC1")
52
>>> reported_result("C[C@@H](O)c1nc2cnc3[nH]ccc3c2n1[C@H]1CC[C@H](CCC#N)CC1")
50
>>> reported_result("C[C@@H](O)c1nc2cnc3[nH]ccc3c2n1[C@H]1CC[C@H](NCC(F)(F)F)CC1")
54
>>> reported_result("C[C@@H](O)c1nc2cnc3[nH]ccc3c2n1[C@H]1CC[C@H](CC#N)CC1")
49
>>> reported_result("C[C@@H](O)c1nc2cnc3[nH]ccc3c2n1[C@H]1CC[C@@H](NCC(F)(F)F)C1")
61

====

Assay Info: Half life in Beagle dog at 0.4 mg/kg, iv by LC/MS/MS analysis
Assay type: ADME, organism-based, Canis lupus familiaris
Design: dose 0.4 mg/kg, route intravenous
Test Settings: in vivo
Parameter Measured: half-life (h)

In the examples that follow, each entry is paired with its recorded half-life.
>>> reported_result("C[C@@H](O)c1nc2cnc3[nH]ccc3c2n1[C@H]1CC[C@H](CC#N)CC1")
1.8
>>> reported_result("C[C@@H](O)c1nc2cnc3[nH]ccc3c2n1[C@H]1CC[C@H](CCC#N)CC1")
1.3
>>> reported_result("C[C@@H](O)c1nc2cnc3[nH]ccc3c2n1[C@H]1CC[C@H](C#N)CC1")
2.2
>>> reported_result("C[C@@H](O)c1nc2cnc3[nH]ccc3c2n1[C@H]1CC[C@@H](NCC(F)(F)F)C1")
1.2

I: C[C@@H](O)c1nc2cnc3[nH]ccc3c2n1[C@H]1CC[C@H](NCC(F)(F)F)CC1
II: C[C@@H](O)c1nc2cnc3[nH]ccc3c2n1[C@H]1CCCOC1
## Task # query: argmin of half-life over I and II API: response body contains the label of the selected item.
## Result I

====

Tested System: Cytochrome P450 2C19 (Homo sapiens, UniProt P33261)
Sequence (P33261 whole entry): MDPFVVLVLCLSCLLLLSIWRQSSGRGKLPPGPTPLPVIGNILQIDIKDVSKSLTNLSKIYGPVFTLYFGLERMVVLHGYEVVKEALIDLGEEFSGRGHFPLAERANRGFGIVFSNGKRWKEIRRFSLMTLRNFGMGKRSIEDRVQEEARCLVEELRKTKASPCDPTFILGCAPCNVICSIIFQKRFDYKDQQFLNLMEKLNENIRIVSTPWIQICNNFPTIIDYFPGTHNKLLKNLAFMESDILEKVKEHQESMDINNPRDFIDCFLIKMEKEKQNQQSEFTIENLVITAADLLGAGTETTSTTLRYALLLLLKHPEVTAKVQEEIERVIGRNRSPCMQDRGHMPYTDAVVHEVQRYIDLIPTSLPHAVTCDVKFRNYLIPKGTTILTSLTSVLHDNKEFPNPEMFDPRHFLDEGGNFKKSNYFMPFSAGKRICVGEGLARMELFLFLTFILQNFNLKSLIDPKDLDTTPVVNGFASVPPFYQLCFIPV
pIC50: −log10 of the molar value.
Parameter Measured: pIC50

>>> reported_result("C[C@@H](O)c1nc2cnc3[nH]ccc3c2n1[C@H]1CCCOC1")
"< 5.00"

# input for lookup
## Task Report pIC50 for C[C@@H](O)c1nc2cnc3[nH]ccc3c2n1[C@H]1CC[C@@H](NCC(F)(F)F)C1 please.
## Result < 5.00

====

Reported pEC50, Non-receptor tyrosine-protein kinase TYK2 (Homo sapiens).
pEC50: −log10 of the molar value.
Parameter Measured: pEC50

>>> reported_result("C[C@@H](O)c1nc2cnc3[nH]ccc3c2n1[C@H]1CC[C@H](CC#N)CC1")
7.00

A: C[C@@H](O)c1nc2cnc3[nH]ccc3c2n1[C@H]1CC[C@H](NCC(F)(F)F)CC1
B: C[C@@H](O)c1nc2cnc3[nH]ccc3c2n1[C@H]1CC[C@H](C#N)CC1
C: C[C@@H](O)c1nc2cnc3[nH]ccc3c2n1[C@H]1CC[C@@H](NCC(F)(F)F)C1
## Task Reorder the items by pEC50, least to greatest. # respond with the labels, arranged in the requested order
## Result B, C, A
(B: 5.25, C: 5.66, A: 6.51)

====

Assay Info: Plasma protein binding in cynomolgus monkey
Format: ADME, cell-free, Macaca fascicularis
Test Settings: read-out: PPB (converted)
Parameter Measured: fraction unbound

P: C[C@@H](O)c1nc2cnc3[nH]ccc3c2n1[C@H]1CC[C@H](NCC(F)(F)F)CC1
Q: C[C@@H](O)c1nc2cnc3[nH]ccc3c2n1[C@H]1CC[C@H](CCC#N)CC1
## Task # query: argmin of fraction unbound over P and Q API: response body contains the label of the selected item.
## Result Q
(Q: 0.24, P: 0.35)

====

pEC50: −log10 of the molar value.
Reported pEC50, UniProt:O60674.
Sequence (O60674 whole entry): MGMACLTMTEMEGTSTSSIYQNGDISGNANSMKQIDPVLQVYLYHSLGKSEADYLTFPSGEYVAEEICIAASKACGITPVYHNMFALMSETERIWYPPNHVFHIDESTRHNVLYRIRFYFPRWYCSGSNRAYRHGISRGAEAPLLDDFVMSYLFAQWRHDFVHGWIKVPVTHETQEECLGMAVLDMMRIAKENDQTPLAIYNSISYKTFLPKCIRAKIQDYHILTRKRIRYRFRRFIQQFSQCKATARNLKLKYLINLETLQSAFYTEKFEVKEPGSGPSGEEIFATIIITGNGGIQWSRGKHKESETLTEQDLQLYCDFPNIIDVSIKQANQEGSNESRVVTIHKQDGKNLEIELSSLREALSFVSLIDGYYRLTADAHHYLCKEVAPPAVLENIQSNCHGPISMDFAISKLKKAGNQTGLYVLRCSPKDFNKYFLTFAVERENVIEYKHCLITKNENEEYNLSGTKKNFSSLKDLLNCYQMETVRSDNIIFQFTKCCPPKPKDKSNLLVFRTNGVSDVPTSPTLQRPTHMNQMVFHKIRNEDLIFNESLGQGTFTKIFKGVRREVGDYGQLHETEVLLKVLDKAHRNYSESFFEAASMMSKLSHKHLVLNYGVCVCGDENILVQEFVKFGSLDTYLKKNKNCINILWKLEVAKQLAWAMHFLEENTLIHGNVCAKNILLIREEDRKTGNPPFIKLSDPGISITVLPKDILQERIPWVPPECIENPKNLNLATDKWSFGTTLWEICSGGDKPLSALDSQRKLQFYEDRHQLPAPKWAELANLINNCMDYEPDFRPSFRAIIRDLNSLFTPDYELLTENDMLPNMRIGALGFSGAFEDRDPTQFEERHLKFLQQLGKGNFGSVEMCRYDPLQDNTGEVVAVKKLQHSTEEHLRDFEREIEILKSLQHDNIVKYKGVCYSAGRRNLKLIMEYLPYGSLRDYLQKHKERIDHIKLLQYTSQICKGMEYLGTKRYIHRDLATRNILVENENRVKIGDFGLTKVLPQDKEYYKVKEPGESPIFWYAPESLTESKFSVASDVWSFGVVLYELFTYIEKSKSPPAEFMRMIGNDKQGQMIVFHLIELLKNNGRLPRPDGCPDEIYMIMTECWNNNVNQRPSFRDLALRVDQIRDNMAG
Parameter Measured: pEC50

>>> reported_result("C[C@H](O)c1nc2cnc3[nH]ccc3c2n1C1CCCCC1")
5.28
>>> reported_result("C[C@@H](O)c1nc2cnc3[nH]ccc3c2n1C1CCCCC1")
5.77

A: OCc1nc2cnc3[nH]ccc3c2n1C1CCCCC1
B: CC(C)(O)c1nc2cnc3[nH]ccc3c2n1C1CCCCC1
C: OCCc1nc2cnc3[nH]ccc3c2n1C1CCCCC1
## Task Rank by pEC50 (largest to smallest). # respond with the labels, arranged in the requested order
## Result A, C, B

====

Assay Info: Hepatic clearance in human hepatocytes after 1 to 4 hrs by LC/MS/MS analysis
Format: ADME, cell-based, Liver, Hepatocyte
Parameter Measured: CLhep predicted (mL/min/kg)

In the examples that follow, each entry is paired with its recorded CLhep predicted.
>>> reported_result("C[C@@H](O)c1nc2cnc3[nH]ccc3c2n1[C@H]1CC[C@H](NCC(F)(F)F)C1")
3.5
>>> reported_result("C[C@@H](O)c1nc2cnc3[nH]ccc3c2n1[C@H]1CC[C@H](CCC#N)CC1")
5.7
>>> reported_result("C[C@@H](O)c1nc2cnc3[nH]ccc3c2n1[C@H]1CC[C@H](C#N)CC1")
1.7
>>> reported_result("CCN1CCC(n2c([C@@H](C)O)nc3cnc4[nH]ccc4c32)C(F)(F)C1 (stereo partly drawn)")
3.7
>>> reported_result("C[C@@H](O)c1nc2cnc3[nH]ccc3c2n1[C@H]1CC[C@H](NCC(F)(F)F)CC1")
2
>>> reported_result("C[C@@H](O)c1nc2cnc3[nH]ccc3c2n1[C@H]1CC[C@@H](NCC(F)(F)F)C1")
3.6
>>> reported_result("C[C@@H](O)c1nc2cnc3[nH]ccc3c2n1[C@H]1CC[C@H](CC#N)CC1")
6.8
>>> reported_result("CC[C@@H](O)c1nc2cnc3[nH]ccc3c2n1C1CCCCC1")
12

A: C[C@@H](O)c1nc2cnc3[nH]ccc3c2n1[C@H]1CC[C@@H](C#N)CC1
B: C[C@@H](O)c1nc2cnc3[nH]ccc3c2n1[C@H]1CC[C@H](NCC(F)F)CC1
## Task Which one would you say has the larger CLhep predicted value: A , or B ? API: response body contains the label of the selected item.
## Result A

1: OC[C@@H](O)c1nc2cnc3[nH]ccc3c2n1C1CCCCC1
2: OCCc1nc2cnc3[nH]ccc3c2n1C1CCCCC1
## Task Which one would you say has the larger CLhep predicted value: 1 , or 2 ? API: response body contains the label of the selected item.
## Result 2
(2: 17 mL/min/kg, 1: 6.8 mL/min/kg)
